test system: Salmonella typhi; test: Antibacterial activity against Salmonella enterica subsp. enterica serovar Typhi MTCC 98 after overnight incubation by broth microdilution method; format: functional
Give MIC99 for every item shown.
# unit: µg/mL | format: bare number

The molecule listed as COc1cccc2cc(-c3ccc(C(=O)c4cc(Cl)ccc4O)cn3)c(=O)oc12 has a reported MIC99 of 200

The molecule listed as O=C(c1ccc(-c2cc3ccccc3oc2=O)nc1)c1ccccc1O has a reported MIC99 of 125

The molecule listed as O=C(c1ccc(-c2cc3cc(Br)ccc3oc2=O)nc1)c1ccccc1O has a reported MIC99 of 125

---

Give MIC99 for every item shown.
tested on: Salmonella typhi; assay: Antibacterial activity against Salmonella enterica subsp. enterica serovar Typhi MTCC 98 after overnight incubation by broth microdilution method; type: functional
# unit: µg/mL | format: bare number

The compound listed as Cc1ccc(O)c(C(=O)c2ccc(-c3cc4cc(Br)ccc4oc3=O)nc2)c1 has a reported MIC99 of 100

The compound listed as COc1cccc2cc(-c3ccc(C(=O)c4ccccc4O)cn3)c(=O)oc12 has a reported MIC99 of 250

The compound listed as O=C(c1ccc(-c2cc3c(ccc4ccccc43)oc2=O)nc1)c1cc(Cl)ccc1O has a reported MIC99 of 250

The compound listed as Cc1ccc(O)c(C(=O)c2ccc(-c3cc4ccccc4oc3=O)nc2)c1 has a reported MIC99 of 200

The compound listed as CC1(C)S[C@@H]2[C@H](NC(=O)[C@H](N)c3ccccc3)C(=O)N2[C@H]1C(=O)O has a reported MIC99 of 100

The compound listed as O=C(c1ccc(-c2cc3cc(Br)ccc3oc2=O)nc1)c1cc(Cl)ccc1O has a reported MIC99 of 100

The compound listed as O=C(c1ccc(-c2cc3c(ccc4ccccc43)oc2=O)nc1)c1ccccc1O has a reported MIC99 of 250

The compound listed as O=C(c1ccc(-c2cc3ccccc3oc2=O)nc1)c1cc(Cl)ccc1O has a reported MIC99 of 250

The compound listed as Cc1ccc(O)c(C(=O)c2ccc(-c3cc4c(ccc5ccccc54)oc3=O)nc2)c1 has a reported MIC99 of 250

The compound listed as COc1cccc2cc(-c3ccc(C(=O)c4cc(C)ccc4O)cn3)c(=O)oc12 has a reported MIC99 of 100
